# ASSAY_SUMMARY: In vivo pharmacokinetic in the rat after i.v. and p.o. administration of compound (IV)
# EXPERIMENTAL_CONTEXT: rat, plasma, iv, 5 mg/kg, compound (IV) i.v. 5 mg/kg, rat, mean; read-out: MRT Mean (converted)
MEASURED_PROPERTY: MRT
# number then unit; no other words

Input line: Can you share its MRT? I mean this molecule: CCCC(=O)Oc1ccc(N)cc1C(=O)O.Cl
Output line: 3.65 h

###

# ASSAY_SUMMARY: In vivo pharmacokinetic in the rat after i.v. and p.o. administration of compound (IV)
# EXPERIMENTAL_CONTEXT: rat, plasma, iv, 5 mg/kg, compound (IV) i.v. 5 mg/kg, rat, individual rats; read-out: Clast
MEASURED_PROPERTY: concentration at 1440 min
Enter the number, and then the unit.

Input line: Please give the measured concentration at 1440 min for this molecule: CCCC(=O)Oc1ccc(N)cc1C(=O)O.Cl
Output line: 2.9 ng/mL

###

# ASSAY_SUMMARY: In vivo pharmacokinetic in the rat after i.v. and p.o. administration of compound (IV)
# EXPERIMENTAL_CONTEXT: rat, plasma, iv, 5 mg/kg, compound (IV) i.v. 5 mg/kg, rat, individual rats; read-out: MRT (converted)
MEASURED_PROPERTY: MRT
Reply with a number, then the unit it belongs to.

Input line: What does the record list as MRT for CCCC(=O)Oc1ccc(N)cc1C(=O)O.Cl [Compound (IV), 5-amino-2-(butyryloxy)benzoic acid] ?
Output line: 4.55 h

###

# ASSAY_SUMMARY: In vivo pharmacokinetic in the rat after i.v. and p.o. administration of compound (IV)
# EXPERIMENTAL_CONTEXT: rat, plasma, iv, 5 mg/kg, compound (IV) i.v. 5 mg/kg, rat, mean; read-out: Tmax Mean (converted)
MEASURED_PROPERTY: Tmax (min)
Could you give me the number in min? Just the number is fine.

Input line: Look at this compound and give its reported Tmax. CCCC(=O)Oc1ccc(N)cc1C(=O)O.Cl
Output line: 2

###

# ASSAY_SUMMARY: Permeability on the Caco2 cellular line
# Assay type: in vitro ADME
# EXPERIMENTAL_CONTEXT: human, Caco-2; B→A, Caco2; read-out: Papp B→A (nm/sec) Mean ± SD
MEASURED_PROPERTY: Papp B→A

Input line: Papp B→A lookup needed for CCCC(=O)Oc1ccc(N)cc1C(=O)O.Cl , thanks.
Output line: 0.24 ×10⁻⁶ cm/s

###

# ASSAY_SUMMARY: In vivo pharmacokinetic in the rat after i.v. and p.o. administration of compound (IV)
# EXPERIMENTAL_CONTEXT: rat, plasma, iv, 5 mg/kg, compound (IV) i.v. 5 mg/kg, rat, individual rats; read-out: AUClast (converted)
MEASURED_PROPERTY: AUC(0-t)
Respond with the figure and its unit, in that order.

Input line: Item CCCC(=O)Oc1ccc(N)cc1C(=O)O.Cl has what recorded AUC(0-t)?
Output line: 0.296 µg·h/mL

###

# ASSAY_SUMMARY: In vivo pharmacokinetic in the rat after i.v. and p.o. administration of compound (IV)
# EXPERIMENTAL_CONTEXT: rat, plasma, iv, 5 mg/kg, compound (IV) i.v. 5 mg/kg, rat, mean; read-out: Clast Mean
MEASURED_PROPERTY: concentration at 1440 min

Input line: For the molecule shown here, CCCC(=O)Oc1ccc(N)cc1C(=O)O.Cl [Compound (IV), 5-amino-2-(butyryloxy)benzoic acid] , give the reported concentration at 1440 min.
Output line: 2.1 ng/mL

###

# ASSAY_SUMMARY: In vivo pharmacokinetic in the rat after i.v. and p.o. administration of compound (IV)
# EXPERIMENTAL_CONTEXT: rat, plasma, iv, 5 mg/kg, compound (IV) i.v. 5 mg/kg, rat, mean; read-out: Cmax Mean
MEASURED_PROPERTY: Cmax (ng/mL)
Report as a plain number; the unit ng/mL is understood.

Input line: Value lookup for Cmax; key = CCCC(=O)Oc1ccc(N)cc1C(=O)O.Cl
Output line: 659

###

# ASSAY_SUMMARY: In vivo pharmacokinetic in the rat after i.v. and p.o. administration of compound (IV)
# EXPERIMENTAL_CONTEXT: plasma; oral gavage 50 mg/kg vs i.v. 5 mg/kg, rat; read-out: Mean Fpo 0_inf (%) (mean p.o. bioavailability)
MEASURED_PROPERTY: bioavailability (%)
Numeric only. Scale: %

Input line: Looking for the measured bioavailability of CCCC(=O)Oc1ccc(N)cc1C(=O)O.Cl , can you help?
Output line: 2.4

###

# ASSAY_SUMMARY: In vivo pharmacokinetic in the rat after i.v. and p.o. administration of compound (IV)
# EXPERIMENTAL_CONTEXT: rat, plasma, po, 50 mg/kg, compound (IV) oral gavage 50 mg/kg, rat, mean; read-out: AUClast Mean (converted)
MEASURED_PROPERTY: AUC(0-t) (µg·h/mL)
Numbers only; they are read as µg·h/mL.

Input line: What value of AUC(0-t) has been reported for the following compound? CCCC(=O)Oc1ccc(N)cc1C(=O)O.Cl [Compound (IV), 5-amino-2-(butyryloxy)benzoic acid]
Output line: 0.0773

###

# ASSAY_SUMMARY: In vivo pharmacokinetic in the rat after i.v. and p.o. administration of compound (IV)
# EXPERIMENTAL_CONTEXT: rat, plasma, po, 50 mg/kg, compound (IV) oral gavage 50 mg/kg, rat, individual rats; read-out: AUCinf (converted)
MEASURED_PROPERTY: AUC(0-inf) (ng·h/mL)
Expressed in ng·h/mL, but write only the number.

Input line: Name the reported AUC(0-inf) value associated with the compound CCCC(=O)Oc1ccc(N)cc1C(=O)O.Cl
Output line: 76.5

###

# ASSAY_SUMMARY: In vivo pharmacokinetic in the rat after i.v. and p.o. administration of compound (IV)
# EXPERIMENTAL_CONTEXT: rat, plasma, iv, 5 mg/kg, compound (IV) i.v. 5 mg/kg, rat, mean; read-out: Cl Mean
MEASURED_PROPERTY: clearance (mL/min/kg)
Value expressed in mL/min/kg; do not type the unit.

Input line: clearance lookup needed for CCCC(=O)Oc1ccc(N)cc1C(=O)O.Cl , thanks.
Output line: 211

###

# ASSAY_SUMMARY: In vivo pharmacokinetic in the rat after i.v. and p.o. administration of compound (IV)
# EXPERIMENTAL_CONTEXT: rat, plasma, po, 50 mg/kg, compound (IV) oral gavage 50 mg/kg, rat, individual rats; read-out: Cmax
MEASURED_PROPERTY: Cmax (ng/mL)
Note: unit ng/mL is implicit; provide only the numeric part.

Input line: Name the recorded Cmax for CCCC(=O)Oc1ccc(N)cc1C(=O)O.Cl [Compound (IV), 5-amino-2-(butyryloxy)benzoic acid] .
Output line: 89
